assay: soluble fraction after stress (log2 fold change); higher = more stays soluble; pooled small domains, quantitative proteomics; settings: stress: 50 degC
ENDPOINT_LABEL: soluble fraction (log2)

HMNFTETENRIYEEILKNVKQHKKKTVVQIAEKVDVAPSYVIKVAKKLGYSGLNEMWYSLSGIY = -0.54
HMSVTIDAGGKVYLQESEIADDQLVPRLVAISNNGYDKPIYLRADKTVGYGRVAEVMSLLNAAGFTKLVLV = -0.0288
HMEQETVTVPDLVGKDVVAAQAELHEMGLSGKPDGTGTTVVSQFPVAGARVLKHTNVILYTED = -0.0147
HMVAELAEMAENKNITSAQLALAWILKQSENIIPIPGTKRIKYLNENIEAVNVDLSKEDVENIENLLRKYP = -0.0297

====

assay: soluble fraction after stress (log2 fold change); higher = more stays soluble; pooled small domains, quantitative proteomics; details: stress: 50 degC
So basically: soluble fraction (log2) at -0.1 or higher? That is class 1. Lower than -0.1? That is class 0.

HMESYTEEMLEKMSVSKLRTIARELQVDNMTREQIRFGKKTELIQNILEFTGREIENMQLYDK = class 0
HMKDTFHNLSEEKRERIIRAALGEFAASGYEKATLDGVVQAAGISKGGLYEYISSKEDLFRYLLEYSYD = class 0
HMEQFRENIVRIYMEIDDYENGAKFLEMGNNRDASFYELAGDFYKYFGENELANENYDLAISA = class 0
HMRTPLTGREEQVATLIGRGMTNSEIAESLSVDESTVKTHIGSILRKVHLRDRLQVALWFHGLPIE = class 0
HMTTHEQVAILRRELNGLVGAWHHRTGQAHGVTHSKLRKELGGPPAAVASAAQLSARIEKIRQWAT = class 0
HMGQSKNERMLELVELLNKASRSYYQDAQEIMSNYEYDRLYDELQNLEKELGITLSNSPTVN = class 1
HMADMKIHLRPYAHDTNRWHVDIRLMHPTAATEIRKRLVAPAGLSEAQARAWGERQVPTILGKALGVI = class 0
HMSESAGKAFDLLFYLAKAGETVSLARLSRETGMNKATALRYLNVLESKGVVERSKLGWTLGLSLFELGSK = class 0
HMPESYFEMLQKLLETYALPQEGTIYFSAADLARMPQKFEDVIEQTAQKKGGHLVVSKEPKDMDGGFVLV = class 0
HMGFLTKTQRLEILLHLKDEPYYNVEKLKELIKNRYGIVYQSSQSYYDLLKEAGLSWHQTQA = class 0
HMRGLGDLEPVDSLGKIRIDDGHMVLAFGRHKGRHLSEVQAEDPRYIHWLLSPKGIEDVEAREKVKVYLEG = class 1
HMQGEVVTNRSVIDMSRAGLSADIIRAKILRSDTNFDVTAKALIELKESGVPDDIIALMLERADS = class 1
HMALENTDLYAHLRLSHTASVPEIQAALSARVKHMPLQTWLLARKWLLHPRLRERYDGMWSVRFGA = class 0
HMEMPGGVMRTLSTIAYNQPVLQSKLVKVRGPRAYEDVHILRDMGLVSARSVGQTVELSTTPKFAEQF = class 0
HMDGMRASDMVRAALAGAGKTQKELAEHMGWTPQNLSGRLKNNSLTFDELSKALHFAGYEVSMSDANGAG = class 1
HMSEKIDINNSNELELKQLPLTNEQIKSLIEFRRLHGEIQNIYELKNIDFFNIEKVHELKAHIEIKKII = class 0
HMTAMDTQQKKLIIMYHDIHRLRNVEHFTIQRIADHLLLNFRTVKKFLEMTQEEFDKFSENRW = class 0
HMNPGHAERGKEIVEVFLRNNGELSMREIAEKSNITITQARRRVNKLLDQGIVEATAPVQSRNRKYRIK = class 1
HMKVIAEESYRILVDAIEKLPPQMKSIMQLALEGKSNPEIAETLNISGETVHSQKKIAYRKLRVYLKD = class 0
HMSVSATQMDAFVRQLRARLSSADGLDDAARLVRQDLEPFLGRFSDETERDFAAAIEQVRGSIRPVEI = class 1
HMLPIGSSREQVISSLNKMHQDYKEEGNFIYAGYFKQGLPLVPSPRISIALQFNETAHLEKIDATLNYV = class 0
HMDSDIGQQLKILLTVGTFMPSTELKAIAQQFGMKKPTDLKEWVELESDTQRIKGNPTKGYWINEINDL = class 0
HMTKAGVDAWTRGDYAAAVKEWQAQAAKGDADAIFNLGQAFKLGKGVPQDLIKAEQLFGQAAA = class 1
HMHTDQVLVMTRAVGQGEIVRNTDVGLTSVAVDRAVTTIPASQLDEIVGRHALVDLSAGQLLGSHSVGA = class 1
HMPTAGYMTVTPDRVKEGQQFLATLRPPYVLKADGLAAGKGVLILPELEEAQRELEEMLGGFLGELSVNR = class 1
HMEIDFDKINSIFNDANKLYEEGDYFEANNLYKNIVSSNIISKDLYYNLGLSYAKIGSNGYAILWYERALN = class 0
HMGGELLSLRRIGTLTGISYPTLLRYVARYGEQIPQTGTGRSRRFPPAAVPVFQELRATRGRAPRATA = class 1
HMNSNTIIFSQFLSEVDNGRVTQVQIQGNNIKGTLSNGKDFITYAPNDPNLIEKLTSKGVSISASPID = class 1
HMDDTRLLSEIGLSQRVLNALRARGIERVGQVLAMRPDQLLGIRNFGPRALQELRERLQENGYTEGPLFSG = class 1
HMKSVQIPQSITVKEFSQAIEVSVADVIKKLMSMGVMVSQNKEINVDTAILVGEEFGVTVNVA = class 1
HMRKIEDVLRLHAQGMSTRRIALATGVGKTTVIEYLRRAAVAGLSWPLPEGLDEEALERRVFPPPP = class 0
HMAQLKYEQIKSYLQAEAVKPESATRMPTVRELMRRFNVSLVTVNRALSELEHAKVIVRRQGAGIVAAQ = class 0
HMTDPVLYEERDDIAIITINRPEKKNTLTDAVIQGIADGIDAATKSADVVAVVLRGAGDTLTAGYDLTA = class 0
